# Species on record: Rattus norvegicus
# Assay Details: Open TG-GATES - Regimen: Single
# Type: toxicity, organism-based, Sprague-Dawley
# Set-up: regimen Single, gender Male, age 6 weeks
# Measurement Conditions: in vivo, po, 0 mg/kg, 3 h, tissue Plasma, route gavage, dose level Control
Measured ALP of individual entries
Number in IU/L, nothing else.

Consider the following illustrative entries.
>>> val("Nc1ccc(Cc2ccc(N)cc2)cc1")
1787.8
>>> val("O=c1ccc2ccccc2o1")
1014.2

We now examine a further compound.
Can you share its ALP? I mean this compound: COc1ccc([C@@H]2Sc3ccccc3N(CCN(C)C)C(=O)[C@@H]2OC(C)=O)cc1 1273

###

# Species on record: Rattus norvegicus
# Assay Details: Open TG-GATES - Regimen: Daily Repeat
# Type: toxicity, organism-based, Sprague-Dawley
# Design: regimen Daily Repeat, gender Male, age 6 weeks
# Measurement Conditions: in vivo, po, 0 mg/kg, […], tissue Blood, route gavage, dose level Control, time 14 day
Endpoint Label: Neu (%)
Your answer should be a plain number; it is taken to be in %.

>>> val("CN(CCOc1ccc(CC2SC(=O)NC2=O)cc1)c1ccccn1.O=C(O)/C=C\\C(=O)O (stereo unspecified) [ROSIGLITAZONE MALEATE]")
18.6

// query Neu value for entry O=c1ccc2ccccc2o1 [COUMARIN] 10.8

Next compound: O=C(O)c1ccccc1Nc1ccccc1 [FENAMIC ACID] 14.2

Next entry: CCO [ALCOHOL] 13.4

Try the compound CN(C/C=C/C#CC(C)(C)C)Cc1cccc2ccccc12 [TERBINAFINE] 12.2

Follow-up entry: COc1ccc([C@@H]2Sc3ccccc3N(CCN(C)C)C(=O)[C@@H]2OC(C)=O)cc1 [DILTIAZEM] 14

###

# Species on record: Rattus norvegicus
# Assay Details: Open TG-GATES - Regimen: Daily Repeat
# Type: toxicity, organism-based, Sprague-Dawley
# Parameters: regimen Daily Repeat, gender Male, age 6 weeks
# Measurement Conditions: in vivo, po, 0 mg/kg, […], tissue Blood, route gavage, dose level Control, time 28 day
Assign rule met to entries whose Ret meets or exceeds 3%; assign rule not met to the rest.

Please review the following examples before continuing.
>>> classification("CN(CCOc1ccc(CC2SC(=O)NC2=O)cc1)c1ccccn1.O=C(O)/C=C\\C(=O)O (stereo not given) [ROSIGLITAZONE MALEATE]")
"rule not met"
>>> classification("CC(S)C(=O)NCC(=O)O (stereo not given) [TIOPRONIN]")
"rule not met"
>>> classification("CCO [ALCOHOL]")
"rule met"

Lab note: next compound to report on.
Check if Ret >= 3% (inclusive). Item: CN(C/C=C/C#CC(C)(C)C)Cc1cccc2ccccc12 [TERBINAFINE] rule not met

###

# Species: Rattus norvegicus
# Assay Details: Open TG-GATES - Regimen: Single
# Assay type: toxicity, organism-based, Sprague-Dawley
# Design: regimen Single, gender Male, age 6 weeks
# Measurement Conditions: in vivo, po, 0 mg/kg, 9 h, tissue Blood, route gavage, dose level Control
Each entry gets Not satisfied if its WBC stays under 90 x10_2/uL, and Satisfied if its WBC is 90 x10_2/uL or above.

Example entries and their recorded answers appear below.
>>> classification("C=C[C@H]1C[N@@]2CC[C@H]1C[C@@H]2[C@@H](O)c1ccnc2ccc(OC)cc12")
"Not satisfied"
>>> classification("NS(=O)(=O)c1cc(C(=O)O)c(NCc2ccco2)cc1Cl [FUROSEMIDE]")
"Not satisfied"
>>> classification("CC(=O)[C@@]1(O)CC[C@H]2[C@@H]3C=C(Cl)C4=CC(=O)CC[C@]4(C)[C@H]3CC[C@@]21C")
"Satisfied"

Dear colleague, could you confirm whether CCO has WBC at or above 90 x10_2/uL? Not satisfied

Please do the same for Nc1ccc(Cc2ccc(N)cc2)cc1 as well. Not satisfied

Input CCN(CC)C(=S)SSC(=S)N(CC)CC Satisfied

###

# Species: Rattus norvegicus
# Assay Details: Open TG-GATES - Regimen: Single
# Format: toxicity, organism-based, Sprague-Dawley
# Parameters: regimen Single, gender Male, age 6 weeks
# Measurement Conditions: in vivo, po, 0 mg/kg, 6 h, tissue Blood, route gavage, dose level Control
Rule: measured WBC below 100 x10_2/uL gets met; anything equal to or greater than 100 x10_2/uL gets not met.

See these solved cases before continuing.
>>> classification("NS(=O)(=O)c1cc(C(=O)O)c(NCc2ccco2)cc1Cl [FUROSEMIDE]")
"met"
>>> classification("CN(CCOc1ccc(CC2SC(=O)NC2=O)cc1)c1ccccn1.O=C(O)/C=C\\C(=O)O (stereo unspecified) [ROSIGLITAZONE MALEATE]")
"met"
>>> classification("CC(S)C(=O)NCC(=O)O (stereo unspecified)")
"not met"
>>> classification("CN(C/C=C/C#CC(C)(C)C)Cc1cccc2ccccc12")
"not met"

Determine whether this compound shows WBC lower than 100 x10_2/uL (ties excluded): CC(=O)[C@@]1(O)CC[C@H]2[C@@H]3C=C(Cl)C4=CC(=O)CC[C@]4(C)[C@H]3CC[C@@]21C not met

###

# Species: Rattus norvegicus
# Assay Details: Open TG-GATES - Regimen: Daily Repeat
# Assay type: toxicity, organism-based, Sprague-Dawley
# Parameters: regimen Daily Repeat, gender Male, age 6 weeks
# Measurement Conditions: in vivo, po, 1000 mg/kg, […], tissue Blood, route gavage, dose level High, time 7 day
Entries and their Mono values follow.

Sample answers from the record:
>>> val("CC(S)C(=O)NCC(=O)O (stereo not drawn)")
"2.6%"
>>> val("O=C(O)c1ccccc1Nc1ccccc1")
"3%"

Field: next compound
Consider the compound shown here: CC(=O)[C@@]1(O)CC[C@H]2[C@@H]3C=C(Cl)C4=CC(=O)CC[C@]4(C)[C@H]3CC[C@@]21C What is its recorded Mono? 2.2%

###

# Organism: Rattus norvegicus
# Assay Details: Open TG-GATES - Regimen: Daily Repeat
# Type: toxicity, organism-based, Sprague-Dawley
# Parameters: regimen Daily Repeat, gender Male, age 6 weeks
# Measurement Conditions: in vivo, po, 0 mg/kg, […], tissue Plasma, route gavage, dose level Control, time 14 day
A/G values for the compounds below.
API note: the answer field is a bare number with no unit suffix.

>>> val("CCCCNC(=O)NS(=O)(=O)c1ccc(C)cc1 [TOLBUTAMIDE]")
0.8
>>> val("O=c1ccc2ccccc2o1 [COUMARIN]")
2

Looking for the measured A/G of CC(S)C(=O)NCC(=O)O (stereo unspecified) [TIOPRONIN] , can you help? 1.3

###

# Species: Rattus norvegicus
# Assay Details: Open TG-GATES - Regimen: Single
# Format: toxicity, organism-based, Sprague-Dawley
# Parameters: regimen Single, gender Male, age 6 weeks
# Measurement Conditions: in vivo, po, 0 mg/kg, 6 h, tissue Blood, route gavage, dose level Control
Endpoint Label: RBC (x10_4/ul)
Write the answer as a number in x10_4/ul, unit excluded.

>>> val("O=c1ccc2ccccc2o1")
617.2
>>> val("O=C(O)c1ccccc1Nc1ccccc1")
634.4
>>> val("CC(S)C(=O)NCC(=O)O (centres undefined)")
621

Would you mind telling me what RBC value was observed for CN(C/C=C/C#CC(C)(C)C)Cc1cccc2ccccc12 ? 650.8

###

Measured KIDNEY_TOTAL by item
# Species: Rattus norvegicus
# Assay Details: Open TG-GATES - Regimen: Single
# Assay type: toxicity, organism-based, Sprague-Dawley
# Design: regimen Single, gender Male, age 6 weeks
# Measurement Conditions: in vivo, po, 0 mg/kg, 6 h, tissue Kidney, route gavage, dose level Control
Write down the numeric answer in g and omit the unit.

// known answers, use as guide
>>> val("CN(C/C=C/C#CC(C)(C)C)Cc1cccc2ccccc12")
2
>>> val("O=c1ccc2ccccc2o1")
1.7
>>> val("CC(=O)[C@@]1(O)CC[C@H]2[C@@H]3C=C(Cl)C4=CC(=O)CC[C@]4(C)[C@H]3CC[C@@]21C")
2
>>> val("CN(C)CCCN1c2ccccc2Sc2ccc(Cl)cc21")
1.9
>>> val("C=C[C@H]1C[N@@]2CC[C@H]1C[C@@H]2[C@@H](O)c1ccnc2ccc(OC)cc12")
1.9
>>> val("CCO")
1.9

Alright, here's another compound for you.
Entry CN(CCOc1ccc(CC2SC(=O)NC2=O)cc1)c1ccccn1.O=C(O)/C=C\C(=O)O (configuration not stated) [ROSIGLITAZONE MALEATE] has what KIDNEY_TOTAL? 0.7

###

# Species: Rattus norvegicus
# Assay Details: Open TG-GATES - Regimen: Daily Repeat
# Assay type: toxicity, organism-based, Sprague-Dawley
# Parameters: regimen Daily Repeat, gender Male, age 6 weeks
# Measurement Conditions: in vivo, po, 0 mg/kg, 72 h, tissue Plasma, route gavage, dose level Control, time 3 day
Endpoint Label: K (meq/L)
Dear colleague, please return just the value in meq/L, with no unit written.

Reference set (3 entries):
>>> val("CC(=O)[C@@]1(O)CC[C@H]2[C@@H]3C=C(Cl)C4=CC(=O)CC[C@]4(C)[C@H]3CC[C@@]21C")
4.3
>>> val("COc1ccc([C@@H]2Sc3ccccc3N(CCN(C)C)C(=O)[C@@H]2OC(C)=O)cc1")
4
>>> val("CCN(CC)C(=S)SSC(=S)N(CC)CC")
4.2

Now for another entry.
Any idea what its K is? The compound is O=C(O)c1ccccc1Nc1ccccc1 4.3
